src = patent US20230374132A1

tested_target: T1, cynomolgus monkey CD3 E&D complex protein (Sino Biological Inc., CT032-00323H) (cynomolgus monkey, UniProt Q95LI5 22-117; Q95LI8 22-105)
T1 construct: bought heterodimer
T1 sequence (Q95LI5 22-117, chain 1 of 2): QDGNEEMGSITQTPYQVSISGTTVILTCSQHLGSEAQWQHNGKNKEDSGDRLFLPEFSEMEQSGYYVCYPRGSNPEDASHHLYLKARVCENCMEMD
T1 sequence (Q95LI8 22-105, chain 2 of 2): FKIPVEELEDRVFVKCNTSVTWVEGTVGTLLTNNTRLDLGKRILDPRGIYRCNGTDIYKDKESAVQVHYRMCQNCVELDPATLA
assay_explanation: BLI, antibody on sensor
Experimental: 100 μl SD buffer, various antibodies, human CD3 E&D complex protein (Sino Biological Inc., CT026H0323H), and cynomolgus monkey CD3 E&D complex protein (Sino Biological Inc., CT032-00323H) were added into 96-well black polystyrene semi-quantitative micro-well plate (Greiner, 675076) respectively. Fortebio Octet Red 96 was used for detection, and the sensor position was selected according to the sample position. […]
measured_endpoint: Kd (nM)
Supply the numeric figure in nM, leaving out any unit text.

>  <binder>
hzsp34.44 (antibody, human IgG1, kappa, L234A L235A, V domains shown, IgG1 L234A L235A, kappa) VH: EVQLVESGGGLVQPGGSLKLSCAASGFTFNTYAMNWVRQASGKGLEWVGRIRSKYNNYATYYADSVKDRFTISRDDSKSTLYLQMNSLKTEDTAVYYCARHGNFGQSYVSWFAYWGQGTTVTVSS VL: EIVMTQSPATLSVSPGERATLSCRSSTGAVTTSNYANWVQQKPGQAPRGLIGGTNKRAPGVPARFSGSGSGDEFTLTISSLQSEDFAVYYCALWYSNLWVFGQGTKLTVLR

>  <unit_descriptor>
nM

>  <Kd>
12.1

$$$$

Ask: Quick check: Kd of hzsp34.40 (antibody, human IgG1, kappa, L234A L235A, V domains shown, IgG1 L234A L235A, kappa) VH: EVQLVESGGGLVQPGGSLKLSCAASGFTFNTYAMNWVRQASGKGLEWVARIRSKYNNYATYYADSVKDRFTISRDDSKSTLYLQMNSLKTEDTAVYYCARHGNFGQSYVSWFAYWGQGTTVTVSS VL: EIVMTQSPATLSVSPGERATLSCRSSTGAVTTSNYANWVQQKPGQAPRGLIGGTNKRAPGVPARFSGSGSGTEFTLTISSLQSEDFAVYYCALWYSNLWVFGQGTKLTVLR ?
Reply: 15.3
